Measured values drawn from patent US20090136495A1 for this set.

Target: T1, human hepcidin-25 (human, not fully specified)
T1 construct: also called human mature hepcidin
T1 peptide: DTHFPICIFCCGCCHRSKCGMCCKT
Assay: SPR (BIAcore), Mab captured on protein A, human hepcidin-25 injected, 25 C
measured-endpoint: pKd
In textbook form, pKd equals minus log to base ten of the concentration in mol/L.

binder	pKd
Mab 3.12 (antibody, human IgG4 S228P, kappa, V domains shown) VH: QVQLVQSGAEVKKPGSSVKVSCKASGYTFLIYPISWVRQAPGQGLEWMGNFHPYLGVTNYLEKFKGRVTITADKSTSTAYMELSSLRSEDTAVYYCARGGTGSFDYWGQGTTVTVSS VL: DIQMTQSPSSLSASVGDRVTITCSASSRVSSTYLFWYQQKPGKAPKLLIYRTSTLTSGVPSRFSGSGSGTDFTLTISSLQPEDFATYYCQQWSGYPFVFGGGTKVEIKR	10.22

Lab note: next binder to report on.
Indicate the recorded pKd value for this binder: Mab 3.8 (antibody, human IgG4, V domains shown, Human engineered Mab, human IgG4) VH: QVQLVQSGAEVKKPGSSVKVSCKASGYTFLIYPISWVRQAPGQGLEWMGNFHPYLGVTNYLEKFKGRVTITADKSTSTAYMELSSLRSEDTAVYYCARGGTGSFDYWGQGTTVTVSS VL: DIQMTQSPSSLSASVGDRVTITCSASSRVSSTYLFWYQQKPGKAPKLLIYRTSPLASGVPSRFSGSGSGTDFTLTISSLQPEDFATYYCQQWSGYPFTFGGGTKVEIKR
9.98
